Entry source: paper PMC8162404

Answer each item with its documented Kd.
TARGET_DESC: S100B (Homo sapiens)
Construct: made in house; host or cells: Escherichia coli BL21(DE3)
Sequence (P04271 whole entry): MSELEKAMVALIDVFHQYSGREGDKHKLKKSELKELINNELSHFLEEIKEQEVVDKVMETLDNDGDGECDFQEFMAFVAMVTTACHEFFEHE
MEASUREMENT_DESCRIPTION: Pull-down assay with immobilized protein and LSM libraries
Assay type: binding
TEST_CONTEXT: H14 library; 1:1 binding assumed; read-out: Surface mapping KD (apparent)

Some solved cases for reference:
MOLECULAR_STRING	DATA_VALUE
NCCCC[C@@H](CC(=O)N[C@H]1CCCC[C@@H]1C(N)=O)NC(=O)[C@H]1CCCC[C@@H]1NC(=O)[C@H]1CCCC[C@@H]1NC(=O)C[C@H](CC(N)=O)NC(=O)[C@H]1CCCC[C@@H]1N	270 µM
C[C@@H](O)[C@@H](CC(=O)N[C@H]1CCCC[C@@H]1C(=O)N[C@H]1CCCC[C@@H]1C(=O)N[C@@H](CCCCN)CC(=O)N[C@H]1CCCC[C@@H]1C(N)=O)NC(=O)[C@H]1CCCC[C@@H]1N	172 µM
C[C@@H](CC(=O)N[C@H]1CCCC[C@@H]1C(=O)N[C@H]1CCCC[C@@H]1C(=O)N[C@H](CC(=O)N[C@H]1CCCC[C@@H]1C(N)=O)Cc1c[nH]c2ccccc12)NC(=O)[C@H]1CCCC[C@@H]1N	42 µM
NC(=O)[C@H]1CCCC[C@@H]1NC(=O)C[C@H](Cc1ccccc1)NC(=O)[C@H]1CCCC[C@@H]1NC(=O)[C@H]1CCCC[C@@H]1NC(=O)C[C@H](Cc1ccccc1)NC(=O)[C@H]1CCCC[C@@H]1N	16 µM

// below: Kd requested for another compound
## Input Give the measured Kd of NC(=O)[C@H]1CCCC[C@@H]1NC(=O)C[C@H](Cc1c[nH]c2ccccc12)NC(=O)[C@H]1CCCC[C@@H]1NC(=O)[C@H]1CCCC[C@@H]1NC(=O)C[C@H](Cc1ccccc1)NC(=O)[C@H]1CCCC[C@@H]1N .
## Output 27 µM

* * *

TARGET_DESC: S100A4 (Homo sapiens, UniProt P26447)
Construct: made in house; host or cells: Escherichia coli BL21(DE3)
Sequence (P26447 whole entry): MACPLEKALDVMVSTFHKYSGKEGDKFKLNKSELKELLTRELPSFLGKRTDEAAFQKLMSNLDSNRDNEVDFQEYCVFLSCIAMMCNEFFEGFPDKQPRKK
MEASUREMENT_DESCRIPTION: Pull-down assay with immobilized protein and LSM libraries
Assay type: binding
TEST_CONTEXT: H14 probes selected for validation
QUANTITY: Affinity class of probe (high, medium, low) in pull-down

Some solved cases for reference:
MOLECULAR_STRING	DATA_VALUE
C[C@@H](O)[C@@H](CC(=O)N[C@H]1CCCC[C@@H]1C(=O)N[C@H]1CCCC[C@@H]1C(=O)N[C@H](CC(=O)N[C@H]1CCCC[C@@H]1C(N)=O)Cc1c[nH]c2ccccc12)NC(=O)[C@H]1CCCC[C@@H]1N	low
CSCC[C@@H](CC(=O)N[C@H]1CCCC[C@@H]1C(N)=O)NC(=O)[C@H]1CCCC[C@@H]1NC(=O)[C@H]1CCCC[C@@H]1NC(=O)C[C@@H](NC(=O)[C@H]1CCCC[C@@H]1N)[C@@H](C)O	high
CC[C@H](C)[C@@H](CC(=O)N[C@H]1CCCC[C@@H]1C(=O)N[C@H]1CCCC[C@@H]1C(=O)N[C@H](CC(=O)N[C@H]1CCCC[C@@H]1C(N)=O)Cc1ccccc1)NC(=O)[C@H]1CCCC[C@@H]1N	high
NC(=O)[C@H]1CCCC[C@@H]1NC(=O)C[C@H](Cc1c[nH]c2ccccc12)NC(=O)[C@H]1CCCC[C@@H]1NC(=O)[C@H]1CCCC[C@@H]1NC(=O)C[C@H](Cc1c[nH]c2ccccc12)NC(=O)[C@H]1CCCC[C@@H]1N	medium
CC(C)C[C@@H](CC(=O)N[C@H]1CCCC[C@@H]1C(N)=O)NC(=O)[C@H]1CCCC[C@@H]1NC(=O)[C@H]1CCCC[C@@H]1NC(=O)C[C@H](Cc1c[nH]c2ccccc12)NC(=O)[C@H]1CCCC[C@@H]1N	high
CC(C)C[C@@H](CC(=O)N[C@H]1CCCC[C@@H]1C(N)=O)NC(=O)[C@H]1CCCC[C@@H]1NC(=O)[C@H]1CCCC[C@@H]1NC(=O)C[C@@H](NC(=O)[C@H]1CCCC[C@@H]1N)C(C)C	high
N=C(N)NCCC[C@@H](CC(=O)N[C@H]1CCCC[C@@H]1C(N)=O)NC(=O)[C@H]1CCCC[C@@H]1NC(=O)[C@H]1CCCC[C@@H]1NC(=O)C[C@H](CCCNC(=N)N)NC(=O)[C@H]1CCCC[C@@H]1N	low
CC[C@H](C)[C@@H](CC(=O)N[C@H]1CCCC[C@@H]1C(N)=O)NC(=O)[C@H]1CCCC[C@@H]1NC(=O)[C@H]1CCCC[C@@H]1NC(=O)C[C@@H](NC(=O)[C@H]1CCCC[C@@H]1N)[C@@H](C)O	high
NC(=O)[C@H]1CCCC[C@@H]1NC(=O)C[C@H](Cc1ccccc1)NC(=O)[C@H]1CCCC[C@@H]1NC(=O)[C@H]1CCCC[C@@H]1NC(=O)C[C@H](Cc1ccc(O)cc1)NC(=O)[C@H]1CCCC[C@@H]1N	medium
CC[C@H](C)[C@@H](CC(=O)N[C@H]1CCCC[C@@H]1C(=O)N[C@H]1CCCC[C@@H]1C(=O)N[C@H](CC(=O)N[C@H]1CCCC[C@@H]1C(N)=O)CC(C)C)NC(=O)[C@H]1CCCC[C@@H]1N	high

// below: Affinity class of probe (high, medium, low) in pull-down requested for another compound
## Input Give the measured Affinity class of probe (high, medium, low) in pull-down of N=C(N)NCCC[C@@H](CC(=O)N[C@H]1CCCC[C@@H]1C(=O)N[C@H]1CCCC[C@@H]1C(=O)N[C@H](CC(=O)N[C@H]1CCCC[C@@H]1C(N)=O)Cc1ccccc1)NC(=O)[C@H]1CCCC[C@@H]1N .
## Output medium

* * *

TARGET_DESC: Gal-1 (Homo sapiens)
Construct: made in house; host or cells: E. coli BL21(DE3)
Sequence (P09382 whole entry): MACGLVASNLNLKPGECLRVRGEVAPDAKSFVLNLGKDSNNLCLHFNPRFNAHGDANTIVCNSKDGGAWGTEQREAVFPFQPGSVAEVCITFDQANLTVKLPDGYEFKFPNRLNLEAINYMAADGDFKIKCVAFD
MEASUREMENT_DESCRIPTION: Pull-down assay with immobilized protein and LSM libraries
Type: binding
TEST_CONTEXT: H12 library; 1:1 binding assumed; read-out: Surface mapping KD (apparent)
QUANTITY: Kd (µM)
One number for each entry, in µM.

Some solved cases for reference:
MOLECULAR_STRING	MEASUREMENT_UNITS	Kd
C[C@@H](O)[C@@H](CC(=O)N[C@H]1CCC[C@@H]1C(=O)N[C@H]1CCC[C@@H]1C(N)=O)NC(=O)[C@H]1CCC[C@@H]1NC(=O)[C@H]1CCC[C@@H]1NC(=O)C[C@H](CCC(=O)O)NC(=O)[C@H]1CCC[C@@H]1NC(=O)[C@H]1CCC[C@@H]1N	µM	372
C[C@@H](CC(=O)N[C@H]1CCC[C@@H]1C(=O)N[C@H]1CCC[C@@H]1C(=O)N[C@H](CC(=O)N[C@H]1CCC[C@@H]1C(=O)N[C@H]1CCC[C@@H]1C(N)=O)Cc1c[nH]c2ccccc12)NC(=O)[C@H]1CCC[C@@H]1NC(=O)[C@H]1CCC[C@@H]1N	µM	355
CC(C)[C@@H](CC(=O)N[C@H]1CCC[C@@H]1C(=O)N[C@H]1CCC[C@@H]1C(=O)N[C@@H](CCCNC(=N)N)CC(=O)N[C@H]1CCC[C@@H]1C(=O)N[C@H]1CCC[C@@H]1C(N)=O)NC(=O)[C@H]1CCC[C@@H]1NC(=O)[C@H]1CCC[C@@H]1N	µM	234

Go through the list and state Kd for each entry.
1. NC(=O)[C@H]1CCC[C@@H]1NC(=O)[C@H]1CCC[C@@H]1NC(=O)C[C@H](CC(=O)O)NC(=O)[C@H]1CCC[C@@H]1NC(=O)[C@H]1CCC[C@@H]1NC(=O)C[C@H](Cc1c[nH]c2ccccc12)NC(=O)[C@H]1CCC[C@@H]1NC(=O)[C@H]1CCC[C@@H]1N
2. CC(C)C[C@@H](CC(=O)N[C@H]1CCC[C@@H]1C(=O)N[C@H]1CCC[C@@H]1C(=O)N[C@@H](CCC(=O)O)CC(=O)N[C@H]1CCC[C@@H]1C(=O)N[C@H]1CCC[C@@H]1C(N)=O)NC(=O)[C@H]1CCC[C@@H]1NC(=O)[C@H]1CCC[C@@H]1N
3. N=C(N)NCCC[C@@H](CC(=O)N[C@H]1CCC[C@@H]1C(=O)N[C@H]1CCC[C@@H]1C(N)=O)NC(=O)[C@H]1CCC[C@@H]1NC(=O)[C@H]1CCC[C@@H]1NC(=O)C[C@H](CCCCN)NC(=O)[C@H]1CCC[C@@H]1NC(=O)[C@H]1CCC[C@@H]1N
4. NC(=O)[C@H]1CCC[C@@H]1NC(=O)[C@H]1CCC[C@@H]1NC(=O)C[C@H](Cc1ccccc1)NC(=O)[C@H]1CCC[C@@H]1NC(=O)[C@H]1CCC[C@@H]1NC(=O)C[C@H](CC(=O)O)NC(=O)[C@H]1CCC[C@@H]1NC(=O)[C@H]1CCC[C@@H]1N

## Output
[297, 335, 231, 254]

## Input Give the measured Kd of CC(C)[C@@H](CC(=O)N[C@H]1CCC[C@@H]1C(=O)N[C@H]1CCC[C@@H]1C(N)=O)NC(=O)[C@H]1CCC[C@@H]1NC(=O)[C@H]1CCC[C@@H]1NC(=O)C[C@H](CC(=O)O)NC(=O)[C@H]1CCC[C@@H]1NC(=O)[C@H]1CCC[C@@H]1N .
## Output 270
